Molecular target: SARS-CoV-2 spike ectodomain (S-ecto), Wuhan-hu-1 strain, 2P (SARS-CoV-2, Wuhan-hu-1, UniProt P0DTC2, 2P mutation at residues 986 and 987 | 2P mutation at residues 986 and 987, biotin (NHS-sulfo-LC-Biotin, EZ-link biotinylation kit))
Assay: BLI
Details: both partners purified
property_label: pKd
// returns pKd (minus log10 of molar concentration), number only

binder	pKd
humanized SW186 H4L2 (antibody, V domains shown) VH: QVQLVQSGAEVKKPGSSVKVSCKASGVAFSSYWMNWVKQAPGQGLEWIGQIYPGDGDTNYNGKFKGKATITADKSTSTAYMELSSLRSEDTAVYFCARGFIATVEETMDYWGQGTLVTVSS VL: DIQMTQSPSSLSASVGDRVTITCRASQDISNYLNWYQQKPGKAPKLLIYYTSRLHSGVPSRFSGSGSGTDFTLTISSLQPEDFATYFCQQSHTLPWTFGGGTKLEIK	8.23
humanized SW186 H4L3 (antibody, V domains shown) VH: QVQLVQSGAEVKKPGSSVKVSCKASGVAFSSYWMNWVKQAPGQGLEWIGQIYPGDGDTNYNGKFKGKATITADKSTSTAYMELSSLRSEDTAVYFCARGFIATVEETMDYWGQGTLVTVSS VL: DIQMTQSPSSLSASVGDRVTITCRASQDISNYLNWYQQKPGKAPKLLIYYTSRLHSGVPSRFSGSGSGTDYTLTISSLQPEDFATYFCQQSHTLPWTFGGGTKLEIK	8.62
humanized SW186 H3L4 (antibody, V domains shown) VH: QVQLVQSGAEVKKPGSSVKVSCKASGVAFSSYWMNWVRQAPGQGLEWIGQIYPGDGDTNYNGKFKGRATITADKSTSTAYMELSSLRSEDTAVYFCARGFIATVEETMDYWGQGTLVTVSS VL: DIQMTQSPSSLSASVGDRVTITCRASQDISNYLNWYQQKPGKTVKLLIYYTSRLHSGVPSRFSGSGSGTDYTLTISSLQPEDFATYFCQQSHTLPWTFGGGTKLEIK	8.59
humanized SW186 H2L4 (antibody, V domains shown) VH: QVQLVQSGAEVKKPGSSVKVSCKASGVAFSSYWMNWVRQAPGQGLEWIGQIYPGDGDTNYNGKFKGRVTITADKSTSTAYMELSSLRSEDTAVYFCARGFIATVEETMDYWGQGTLVTVSS VL: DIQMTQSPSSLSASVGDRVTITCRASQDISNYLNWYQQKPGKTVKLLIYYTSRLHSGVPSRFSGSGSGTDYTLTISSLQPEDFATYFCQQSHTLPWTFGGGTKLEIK	8.50

Now for the binder whose pKd we want.
Suppose we examine the binder SW186 (murine variable regions, murine-human chimeric) (Fab, V domains shown) VH: QVQLQQSGAELVKPGASVKISCKASGVAFSSYWMNWVKQRPGKGLEWIGQIYPGDGDTNYNGKFKGKATLTADKSSSTAYMQLSSLSSEDSAVYFCARGFIATVEETMDYWGQGTSVTVSS VL: DIQMTQTTSSLSASLGDRVTISCRASQDISNYLNWYQQKPDGTVKLLIYYTSRLHSGVPSRFSGSGSGTDYSLTISNLEQEDIATYFCQQSHTLPWTFGGGTKLEIK ; what pKd value has been reported?
8.96
